Target: T1, human SLITRK6 on cells (human, UniProt Q9H5Y7 27-841)
T1 construct: whole, on cells
Test: flow cytometry on RT4 cells
measurement_name: EC50 (nM)
Field: numeric (nM). Do not append units.

| binder | measure_unit | EC50 |
| --- | --- | --- |
| hu1H2-03 (antibody, V domains shown, see m20) VH: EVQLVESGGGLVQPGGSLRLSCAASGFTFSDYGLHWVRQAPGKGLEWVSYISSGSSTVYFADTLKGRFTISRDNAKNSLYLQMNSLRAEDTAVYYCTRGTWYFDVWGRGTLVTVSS VL: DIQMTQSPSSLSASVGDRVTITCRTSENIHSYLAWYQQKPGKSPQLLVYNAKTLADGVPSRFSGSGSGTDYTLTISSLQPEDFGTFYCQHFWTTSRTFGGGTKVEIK | nM | 0.36 |
| hu14G1-03 (antibody, V domains shown) VH: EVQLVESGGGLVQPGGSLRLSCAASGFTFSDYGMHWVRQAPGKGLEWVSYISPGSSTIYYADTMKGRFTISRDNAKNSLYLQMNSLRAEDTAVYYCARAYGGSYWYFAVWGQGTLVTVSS VL: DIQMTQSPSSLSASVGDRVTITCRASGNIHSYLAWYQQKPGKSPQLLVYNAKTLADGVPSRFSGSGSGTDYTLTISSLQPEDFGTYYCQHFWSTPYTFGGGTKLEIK | nM | 0.38 |

Next up:
# EC50 lookup, item hu1H2-03-LD038 (8) (antibody, V domains shown, drug-linker LD038 on cysteines freed by TCEP reduction, DAR 8.0; positions not given, also called hu1H2-03 ADC) VH: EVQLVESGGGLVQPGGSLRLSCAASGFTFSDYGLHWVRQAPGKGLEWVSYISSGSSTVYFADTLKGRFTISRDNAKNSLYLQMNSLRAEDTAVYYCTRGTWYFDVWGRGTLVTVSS VL: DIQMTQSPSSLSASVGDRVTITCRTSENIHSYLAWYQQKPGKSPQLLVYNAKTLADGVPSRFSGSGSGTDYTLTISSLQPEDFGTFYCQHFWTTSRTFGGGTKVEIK
0.47
